Reported hepatocyte CLint values follow for various compounds
# assay.summary: in vitro
# cond: hepatocytes

>>> result("CN(CCCOCCOCCc1ccccc1)CCc1ccc(O)c2nc(O)sc12")
"> 150 µL/min/1e6 cells"
>>> result("O=C(CO)N1CCC(c2[nH]nc(-c3ccc(Cl)cc3F)c2-c2ccncn2)CC1")
"< 3 µL/min/1e6 cells"

--- query ---
The compound listed as Cc1ccc(S(=O)(=O)Nc2c(C(=O)N[C@@H](C)C(C)(C)C)c(C)nn2C2CCOCC2)cc1 shows hepatocyte CLint equal to < 3 µL/min/1e6 cells
